Test: Solubility of discodermolide in various solvent systems measured by HPLC
Assay type: physicochemical
Settings: 60% PEG 300/40% normal saline, aqueous with cosolvent or surfactant or cyclodextrin
observable: solubility (µg/mL)
Write it as a number; the unit µg/mL goes unstated.

## Input # get_value(readout='solubility', item= C=C/C=C\C(C)[C@H](OC(N)=O)[C@@H](C)[C@H](O)[C@@H](C)C/C(C)=C\C(C)C(O)[C@@H](C)/C=C\[C@@H](O)C[C@@H]1OC(=O)[C@H](C)C(O)C1C (single isomer, unassigned; (+)) [discodermolide, (+)-Discodermolide] )
## Output 400

###

Experiment: Solubility of discodermolide in various solvent systems measured by HPLC
Assay type: physicochemical
Details: 100% propylene glycol, organic solvent or mixture; 100% PG
observable: solubility

## Input # get_value(readout='solubility', item= C=C/C=C\C(C)[C@H](OC(N)=O)[C@@H](C)[C@H](O)[C@@H](C)C/C(C)=C\C(C)C(O)[C@@H](C)/C=C\[C@@H](O)C[C@@H]1OC(=O)[C@H](C)C(O)C1C (single isomer, unassigned; (+)) [discodermolide, (+)-Discodermolide] )
## Output > 20 mg/mL

###

Assay: Solubility of discodermolide in various solvent systems measured by HPLC
Assay type: physicochemical
Details: 100% ethanol, organic solvent or mixture
Protocol: The solubility of discodermolide in various solvent systems is measured by HPLC and the results shown below: […]
observable: solubility

## Input # get_value(readout='solubility', item= C=C/C=C\C(C)[C@H](OC(N)=O)[C@@H](C)[C@H](O)[C@@H](C)C/C(C)=C\C(C)C(O)[C@@H](C)/C=C\[C@@H](O)C[C@@H]1OC(=O)[C@H](C)C(O)C1C (single isomer, unassigned; (+)) [discodermolide, (+)-Discodermolide] )
## Output > 20 mg/mL
